System: Calu-3
experiment-notes: cell viability relative to DMSO; higher = less toxic
measurement-parameters: 72 h; 1 nM
Listed compounds paired with reported cell viability
Report only the number, with the unit % understood.

| compound | target-or-test-system | measured-property | quantity-unit | readout-number |
| --- | --- | --- | --- | --- |
| CC(C)CCC[C@@H](C)[C@H]1CC[C@H]2[C@@H]3CCC4=CC(=NO)CC[C@]4(C)[C@H]3CC[C@]12C | Calu-3 | cell viability | % | 97.3 |
| CC(C)(C)Sc1c(CC(C)(C)C(=O)O)n(Cc2ccc(Cl)cc2)c2ccc(OCc3ccc4ccccc4n3)cc12 | Calu-3 | cell viability | % | 91.5 |
| Oc1ccc(C(O)CNCCCCCCNCC(O)c2ccc(O)c(O)c2)cc1O (centres undefined) [hexoprenaline] | Calu-3 | cell viability | % | 95.8 |

Prompt: # lookup: cell viability of CC(NC(C)(C)C)C(=O)c1cccc(Cl)c1 (centres undefined)
Completion: 104

Prompt: # lookup: cell viability of "COc1ccccc1N1CCN(CCN2C(=O)CC3(CCCC3)CC2=O)CC1"
Completion: 92.7

Prompt: # lookup: cell viability of "CO/N=C1\C[C@]2(C[C@@H]3C[C@@H](C/C=C(\C)C[C@@H](C)/C=C/C=C4\CO[C@@H]5[C@H](O)C(C)=C[C@@H](C(=O)O3)[C@]45O)O2)O[C@H](/C(C)=C/C(C)C)[C@H]1C"
Completion: 90.7

Prompt: # lookup: cell viability of NS(=O)(=O)c1cc2c(cc1Cl)N=CNS2(=O)=O [chlorothiazide]
Completion: 85.8

Prompt: # lookup: cell viability of "CC(C)c1ccc(C(=O)c2cccs2)c(SCCCCCCCCN(C)C)n1"
Completion: 101

Prompt: # lookup: cell viability of COC(=O)CCc1ccc(OCC(O)CNC(C)C)cc1 (centres undefined)
Completion: 111

Prompt: # lookup: cell viability of "CC(=O)CC/C=C(\C)CC/C=C(\C)CC/C=C(\C)CCC=C(C)C"
Completion: 92.2

Prompt: # lookup: cell viability of "O=C1CC2(CCCC2)CC(=O)N1CCNC[C@H]1COc2ccccc2O1"
Completion: 92.5

Prompt: # lookup: cell viability of "COc1cccc(NC(=O)/C=C/c2ccc(Cl)cc2)c1"
Completion: 104

Prompt: # lookup: cell viability of "COc1ccc(-c2coc3cc(O)cc(O)c3c2=O)cc1"
Completion: 113

Prompt: # lookup: cell viability of "Cc1nc(Nc2cnn(C3CCNCC3)c2)nc2c1N(C)C(=O)c1cc3ccccc3cc1N2C"
Completion: 97.1

Prompt: # lookup: cell viability of Cc1nnc(C(C)C)n1C1C[C@H]2CC[C@@H](C1)N2CC[C@H](NC(=O)C1CCC(F)(F)CC1)c1ccccc1 (stereo in doubt)
Completion: 107

Prompt: # lookup: cell viability of "O=C(NCCO)c1cccc(-c2cc(Nc3ccc(OC(F)(F)F)cc3)ncn2)c1"
Completion: 102

Prompt: # lookup: cell viability of "Cc1ccc2c(Cl)cc(Cl)c(O)c2n1"
Completion: 92.4

Prompt: # lookup: cell viability of "COc1ccc(S(=O)(=O)N2CCCN(S(=O)(=O)c3ccc(OC)c(OC)c3)CC2)cc1OC"
Completion: 89.1

Prompt: # lookup: cell viability of "COc1cc(Nc2ncc(F)c(Nc3ccc4c(n3)NC(=O)C(C)(C)O4)n2)cc(OC)c1OC"
Completion: 85.3
